# collection of pIC50 values tested on human cytochrome P 450 isoenzyme (3A4) (Homo sapiens, UniProt P08684)
# Sequence (P08684 whole entry): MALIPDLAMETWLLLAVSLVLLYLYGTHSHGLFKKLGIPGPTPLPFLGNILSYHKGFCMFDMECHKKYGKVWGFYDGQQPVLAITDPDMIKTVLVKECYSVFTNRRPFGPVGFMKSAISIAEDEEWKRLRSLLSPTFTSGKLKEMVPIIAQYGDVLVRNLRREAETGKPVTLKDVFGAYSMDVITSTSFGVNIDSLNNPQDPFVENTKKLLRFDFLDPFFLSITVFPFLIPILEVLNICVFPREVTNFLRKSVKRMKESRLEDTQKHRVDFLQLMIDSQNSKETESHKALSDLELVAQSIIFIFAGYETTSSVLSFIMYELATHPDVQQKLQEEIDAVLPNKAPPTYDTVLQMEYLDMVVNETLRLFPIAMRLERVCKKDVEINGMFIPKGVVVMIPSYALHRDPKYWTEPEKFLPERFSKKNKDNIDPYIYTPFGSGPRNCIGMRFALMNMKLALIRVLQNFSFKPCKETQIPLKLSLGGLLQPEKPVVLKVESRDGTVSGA
Please treat pIC50 as minus the base-10 logarithm of the molar concentration.

compound	targetOfAssay	recordedMetric	numericReadout
CNC(=O)Nc1cc(CNc2ccccc2C(=O)Nc2cc3ccccc3cn2)ccn1 [Example 3.24]	human cytochrome P 450 isoenzyme (3A4) (Homo sapiens, UniProt P08684)	pIC50	4.85

Moving on to the next compound.
-- ask For the compound CCOC(=O)Nc1cc(CNc2ccccc2C(=O)Nc2ccc3cn[nH]c3c2)ccn1 [Example 6.22] , what pIC50 is on record?
-- reply 5.00
